# Experimental Details: Metabolic stability in human liver microsomes
# Format: in vitro ADME
# Applied Conditions: human liver microsomes 0.5 mg/mL, NADPH, 37° C.
Readout Label: HLM_T1/2

Recorded HLM_T1/2, per entry:
[[record]]
line_notation = "CCS(=O)(=O)Nc1cc2c(cc1Cl)C(c1ccc(F)cc1)=NCc1cc(=O)n(C)cc1-2"
result_value = "∞"

[[record]]
line_notation = "CC[C@@H]1N=C(c2ccc(F)cc2)c2ccc(CS(=O)(=O)CC)cc2-c2cn(C)c(=O)cc21"
result_value = "∞"

[[record]]
line_notation = "Cn1cc2c(cc1=O)CN=C(c1ccc(F)cc1)c1ccc(CS(C)(=O)=O)cc1-2"
result_value = "∞"

[[record]]
line_notation = "CCS(=O)(=O)Cc1ccc2c(c1)-c1cn(C)c(=O)cc1[C@H](C)N=C2c1ccc(F)cc1"
result_value = "∞"

[[record]]
line_notation = "C[C@@H]1N=C(c2ccc(F)cc2)c2ccc(CS(N)(=O)=O)cc2-c2cn(C)c(=O)cc21"
result_value = "∞"


Prompt: For CNS(=O)(=O)Cc1ccc2c(c1)-c1cn(C)c(=O)cc1[C@H](C)N=C2c1ccc(F)cc1 , what is its reported HLM_T1/2?
Completion: ∞

---

# Experimental System: BRD4 (BD2) (Homo sapiens, UniProt O60885)
# Construct: Each member comprises two tandem bromodomains (BD1 and BD2) for recognizing the acetylated lysine residues
# Experimental Details: BRD4 (BD2) bromodomain binding, HTRF
# Applied Conditions: 2 h incubation at r.t.
Entries whose IC50 is below 1 nM take 1.0; entries at or above 1 nM take 0.0.

// below: answered molecules
[[record]]
line_notation = "CCS(=O)(=O)Cc1cnc2c(c1)-c1cn(C)c(=O)cc1CN=C2c1ccc(F)cc1"
class_assignment = 0.0

[[record]]
line_notation = "CCS(=O)(=O)Cc1ccc2c(c1)-c1cn(C)c(=O)cc1[C@H](C)N=C2c1cc(OC)c(F)cc1Cl"
class_assignment = 1.0

[[record]]
line_notation = "Cn1cc2c(cc1=O)CN=C(c1ccc(F)cc1Cl)c1ccc(CS(C)(=O)=O)cc1-2"
class_assignment = 0.0

[[record]]
line_notation = "CCS(=O)(=O)Cc1ccc2c(c1)-c1cn(C)c(=O)cc1CN=C2c1ccc(F)cc1F"
class_assignment = 0.0


Next, consider the following molecule.
Prompt: Please let me know if CCS(=O)(=O)Cc1ccc2c(c1)-c1cn(C)c(=O)cc1CN=C2c1ccc(Cl)cc1 shows IC50 below 1 nM.
Completion: 0.0

---

# Tested on: MV-4-11 cells
# Experimental Details: Inhibitory effect on MV-4-11 cells (CellTiter-Glo)
# Assay type: cell-based
# Applied Conditions: Homo sapiens, MV4-11; 72 hours, CellTiter-Glo; read-out: MV-4-11
Quick reference: IC50 of the listed items.
# value in nM; strip the unit string

Prompt: Return reported IC50; argument: CCS(=O)(=O)Cc1ccc2c(c1)-c1cn(C)c(=O)cc1CN=C2c1ccc(F)cc1Cl
Completion: 161

Prompt: Look up IC50 for this compound: CCNC(=O)C[C@@H]1N=C(c2ccc(Cl)cc2)c2ccccc2-c2cn(C)c(=O)cc21
Completion: 16

Prompt: State the recorded IC50 for this entry: CCS(=O)(=O)Cc1ccc2c(c1)-c1cn(C)c(=O)cc1[C@H](C)N=C2c1ccc(F)cc1OC
Completion: 26

Prompt: What IC50 value was documented for this compound, CCS(=O)(=O)Nc1cc2c(cc1Cl)C(c1ccc(F)cc1)=NCc1cc(=O)n(C)cc1-2 ?
Completion: 3

Prompt: Reported IC50, compound CC[S+]([O-])Cc1ccc2c(c1)-c1cn(C)c(=O)cc1[C@H](C)N=C2c1ccc(F)cc1 (stereo partly shown) : ____
Completion: 28

Prompt: Name the reported IC50 value associated with the compound COc1ccc2c(c1)-c1cn(C)c(=O)cc1CN=C2c1ccc(F)cc1
Completion: 144

Prompt: # query: IC50 of entry CCNC(=O)C[C@@H]1N=C(c2ccc(F)cc2)c2ccc(CS(C)(=O)=O)cc2-c2cn(C)c(=O)cc21
Completion: 69
